# System Tested: T1, whole KDR-ECD (Cat. # 676490, Calbiochem) (human, UniProt P35968 20-764)
# T1 construct: extracellular domain; Bought soluble protein; also called soluble KDR; VEGF Receptor 2 D1-7
# T1 sequence (P35968 20-764): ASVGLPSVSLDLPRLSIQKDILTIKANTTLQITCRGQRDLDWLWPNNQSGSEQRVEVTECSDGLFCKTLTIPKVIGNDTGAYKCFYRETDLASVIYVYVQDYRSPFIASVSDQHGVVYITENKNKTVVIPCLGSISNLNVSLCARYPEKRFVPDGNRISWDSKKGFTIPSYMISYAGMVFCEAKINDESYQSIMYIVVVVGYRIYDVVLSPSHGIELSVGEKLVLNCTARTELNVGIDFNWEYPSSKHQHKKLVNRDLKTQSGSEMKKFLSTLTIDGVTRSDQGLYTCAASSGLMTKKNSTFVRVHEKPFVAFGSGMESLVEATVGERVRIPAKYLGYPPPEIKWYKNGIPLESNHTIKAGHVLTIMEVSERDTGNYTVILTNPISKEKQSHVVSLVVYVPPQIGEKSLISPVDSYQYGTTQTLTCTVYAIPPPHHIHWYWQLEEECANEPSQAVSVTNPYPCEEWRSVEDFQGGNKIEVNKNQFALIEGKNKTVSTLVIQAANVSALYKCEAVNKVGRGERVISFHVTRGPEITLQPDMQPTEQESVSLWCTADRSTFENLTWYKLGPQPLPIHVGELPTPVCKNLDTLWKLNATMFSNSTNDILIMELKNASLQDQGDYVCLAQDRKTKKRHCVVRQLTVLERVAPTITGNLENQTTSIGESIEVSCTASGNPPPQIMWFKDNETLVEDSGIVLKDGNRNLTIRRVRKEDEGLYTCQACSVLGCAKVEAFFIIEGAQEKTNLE
# Assay Explanation: ELISA, KDR-ECD coat 5 ug/mL, antibody 0.1 ug/mL
Catalogue of ELISA reading readings, one per entry.
No unit in the answer, only the number.

These solved cases illustrate the format of a correct answer.
1) 24B3 (antibody, V domains shown, Fully human monoclonal antibody from a XenoMouse hybridoma (IgG2 or IgG4 strain), purified) VH: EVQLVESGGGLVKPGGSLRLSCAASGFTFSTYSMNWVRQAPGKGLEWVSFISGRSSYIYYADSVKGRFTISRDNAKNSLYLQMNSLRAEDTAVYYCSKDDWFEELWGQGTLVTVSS VL: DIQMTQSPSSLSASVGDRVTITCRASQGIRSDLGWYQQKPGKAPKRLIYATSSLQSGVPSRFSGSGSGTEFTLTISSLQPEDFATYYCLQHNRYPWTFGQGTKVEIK
0.304
2) 27A3 (antibody, V domains shown, Fully human monoclonal antibody from a XenoMouse hybridoma (IgG2 or IgG4 strain), purified) VH: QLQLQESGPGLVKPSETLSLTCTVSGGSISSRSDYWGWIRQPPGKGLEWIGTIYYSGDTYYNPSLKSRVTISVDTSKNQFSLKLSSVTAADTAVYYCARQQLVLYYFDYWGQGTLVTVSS VL: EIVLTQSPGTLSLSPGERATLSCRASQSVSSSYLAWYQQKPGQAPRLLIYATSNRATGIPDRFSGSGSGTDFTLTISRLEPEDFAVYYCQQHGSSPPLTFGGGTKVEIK
0.111

Now examine the next entry.
What value of ELISA reading has been recorded for this entry: 29H3 (antibody, V domains shown, Fully human monoclonal antibody from a XenoMouse hybridoma (IgG2 or IgG4 strain), purified) VH: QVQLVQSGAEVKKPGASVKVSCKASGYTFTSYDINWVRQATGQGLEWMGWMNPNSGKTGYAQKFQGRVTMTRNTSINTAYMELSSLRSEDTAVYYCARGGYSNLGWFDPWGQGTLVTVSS VL: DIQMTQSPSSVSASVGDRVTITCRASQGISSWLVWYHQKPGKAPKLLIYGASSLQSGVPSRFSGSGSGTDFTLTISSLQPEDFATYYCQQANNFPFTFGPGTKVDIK
0.306
